system: A549; assay: Antiproliferative activity against human A549 cells incubated for 48 hrs by MTT assay; format: functional, cell-based; conditions: A549, 48 h
# IC50 values compiled below
PARAMETER MEASURED: IC50

>>> result("COc1ccc(N(C)c2ccnc(Cl)n2)cc1OCCCCC[Se]C#N")
"> 10000 nM"
>>> result("COc1ccc(N(C)c2ccnc(Cl)n2)cc1OCC[Se]C#N")
"463 nM"
>>> result("COc1ccc(N(C)c2ccnc(Cl)n2)cc1O")
"381 nM"
>>> result("COc1ccc(N(C)c2ccnc(Cl)n2)cc1OCCCCCBr")
"9720 nM"
>>> result("COc1ccc(N(C)c2ccnc(Cl)n2)cc1OCCCBr")
"862 nM"

###

system: HCT-116; assay: Antiproliferative activity against human HCT116 cells incubated for 48 hrs by MTT assay; assay type: functional, cell-based; details: HCT-116, 48 h
Catalogue of log10(IC50) values
PARAMETER MEASURED: log10(IC50) (log10 of the value in nM)

>>> numeric_result("COc1ccc(N(C)c2ccnc(Cl)n2)cc1OCCCBr")
3.29
>>> numeric_result("COc1ccc(N(C)c2cc(C)nc(C)n2)cc1")
3.12
>>> numeric_result("COc1ccc(N(C)c2cc(C)nc(C)n2)cc1F")
2.77
>>> numeric_result("COc1ccc(N(C)c2ccnc(Cl)n2)cc1O")
2.63
>>> numeric_result("COc1ccc(N(C)c2ccnc(Cl)n2)cc1F")
2.96
>>> numeric_result("COc1ccc(N(C)c2cc(C)nc(C)n2)cc1O")
2.10
>>> numeric_result("COc1ccc(N(C)c2nc(C)nc3ccccc23)cc1 [VERUBULIN]")
0.70
>>> numeric_result("COc1ccc(N(C)c2ccnc(Cl)n2)cc1OCCC[Se]C#N")
3.59
>>> numeric_result("COc1ccc(N(C)c2ccnc(Cl)n2)cc1OCCCCBr")
3.06
>>> numeric_result("COc1ccc(N(C)c2cc(C)nc(C)n2)cc1[N+](=O)[O-]")
3.67
